Test system: intestinal alkaline phosphatase [Mus musculus]
Assay notes: mouse intestinal phosphatase enzyme activation – biochemical, luminescence, single concentration, confirmation (AID 434970)
Experimental parameters: purified mouse IAP, CDP-Star luminescence, 30 min, at 10 µM; hits give low values
Among all 11,000 compounds or so, about 310 (2.8%) were called active. The full list was thinned out, with actives kept by preference.

[
  {
    "Compound": "CCC1CCCCN1CCCNC(=O)c1ccc2c(=O)n(Cc3ccc(OC)cc3)c(=O)[nH]c2c1 (stereo not given)",
    "activity change, negative = activation [%]": 7.5
  },
  {
    "Compound": "CCOC(=O)C1=CN(Cc2cccc(F)c2)S(=O)(=O)N(CC)C1c1ccc(F)c(Cl)c1 (stereo not given)",
    "activity change, negative = activation [%]": -9.9
  },
  {
    "Compound": "COC(=O)c1oc2ccc(Cl)cc2c1N",
    "activity change, negative = activation [%]": 8.55
  },
  {
    "Compound": "Cc1onc(-c2ccccc2)c1NC(=O)Nc1ccc(OC(F)F)cc1",
    "activity change, negative = activation [%]": -47.9
  },
  {
    "Compound": "COCCn1c(SCC(=O)Nc2nc3ccccc3s2)nnc1-c1ccoc1C",
    "activity change, negative = activation [%]": 5.6
  },
  {
    "Compound": "COc1ccc(S(=O)(=O)c2ccc(O)cc2)cc1",
    "activity change, negative = activation [%]": 0.8
  },
  {
    "Compound": "CCN(CC)C(=O)[C@H]1C[C@H](CC(=O)NCCc2ccccn2)C(=O)N2CCc3c([nH]c4cc(-c5ccco5)ccc34)[C@]12C",
    "activity change, negative = activation [%]": -27
  },
  {
    "Compound": "CCOn1c(=O)c(-c2ccc(Cl)cc2)[n+]([O-])c2ccccc21",
    "activity change, negative = activation [%]": 5.65
  },
  {
    "Compound": "[N-]=[N+]=CC(=O)CCCN1C(=O)c2ccccc2C1=O",
    "activity change, negative = activation [%]": -9.05
  },
  {
    "Compound": "CC(C)C(OC(=O)c1ccco1)C(=O)NC1CCCCC1 (stereo not given)",
    "activity change, negative = activation [%]": 3.65
  }
]
